Biological target: Factor X (FX), P00742
Sequence (P00742 whole entry, looked up): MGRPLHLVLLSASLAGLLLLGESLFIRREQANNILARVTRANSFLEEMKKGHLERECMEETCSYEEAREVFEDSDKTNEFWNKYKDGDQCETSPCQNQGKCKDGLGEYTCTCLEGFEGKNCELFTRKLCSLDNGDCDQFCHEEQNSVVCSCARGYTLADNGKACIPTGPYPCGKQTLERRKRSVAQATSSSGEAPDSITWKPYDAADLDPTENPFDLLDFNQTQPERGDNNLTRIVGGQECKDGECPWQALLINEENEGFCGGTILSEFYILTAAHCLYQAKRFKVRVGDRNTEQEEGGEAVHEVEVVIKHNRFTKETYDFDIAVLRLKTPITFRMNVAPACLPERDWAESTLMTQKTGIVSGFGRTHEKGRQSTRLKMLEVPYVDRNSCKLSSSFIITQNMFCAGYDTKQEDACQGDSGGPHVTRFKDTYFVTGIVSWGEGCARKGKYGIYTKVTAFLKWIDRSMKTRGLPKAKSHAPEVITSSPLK
measure: % of WT kcat/KM (%)
Numbers only, in %.

Before answering, review these 3 worked examples.
INPUT: I'd like to know its % of WT kcat/KM. The protein in question is FIXa-Y155F/K247N/N249S/R318Y/E410N (protein) chain 1: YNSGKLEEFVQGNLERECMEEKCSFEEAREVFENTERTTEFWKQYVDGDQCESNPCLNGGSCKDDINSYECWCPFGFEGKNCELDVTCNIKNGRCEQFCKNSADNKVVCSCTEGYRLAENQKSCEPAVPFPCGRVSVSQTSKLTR chain 2: VVGGEDAKPGQFPWQVVLNGKVDAFCGGSIVNEKWIVTAAHCVETGVKITVVAGEHNIEETEHTEQNRSVIRIIPHHNYNAAINKYNHDIALLELDEPLVLNSYVTPICIADKEYTNIFLKFGSGYVSGWGRVFHKGYSALVLQYLRVPLVDRATCLRSTKFTIYNNMFCAGFHEGGRDSCQGDSGGPHVTEVEGTSFLTGIISWGEECAMKGKYGIYTKVSRYVNWIKNKTKLT
OUTPUT: 155

INPUT: I'd like to know its % of WT kcat/KM. The protein in question is FIXa-D203N/F205T/K228N (protein) chain 1: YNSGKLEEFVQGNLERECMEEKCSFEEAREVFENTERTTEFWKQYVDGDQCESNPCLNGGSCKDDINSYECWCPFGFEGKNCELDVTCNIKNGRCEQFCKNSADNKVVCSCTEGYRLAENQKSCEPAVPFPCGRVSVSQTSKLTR chain 2: VVGGEDAKPGQFPWQVVLNGKVNATCGGSIVNEKWIVTAAHCVETGVNITVVAGEHNIEETEHTEQKRNVIRIIPHHNYNAAINKYNHDIALLELDEPLVLNSYVTPICIADKEYTNIFLKFGSGYVSGWGRVFHKGRSALVLQYLRVPLVDRATCLRSTKFTIYNNMFCAGFHEGGRDSCQGDSGGPHVTEVEGTSFLTGIISWGEECAMKGKYGIYTKVSRYVNWIKEKTKLT
OUTPUT: 31

INPUT: I'd like to know its % of WT kcat/KM. The protein in question is FIXa variant A103N/N105S/Y155F/R318Y/R338E/R403E/E410N (protein) chain 1: YNSGKLEEFVQGNLERECMEEKCSFEEAREVFENTERTTEFWKQYVDGDQCESNPCLNGGSCKDDINSYECWCPFGFEGKNCELDVTCNIKNGRCEQFCKNSNDSKVVCSCTEGYRLAENQKSCEPAVPFPCGRVSVSQTSKLTR chain 2: VVGGEDAKPGQFPWQVVLNGKVDAFCGGSIVNEKWIVTAAHCVETGVKITVVAGEHNIEETEHTEQKRNVIRIIPHHNYNAAINKYNHDIALLELDEPLVLNSYVTPICIADKEYTNIFLKFGSGYVSGWGRVFHKGYSALVLQYLRVPLVDRATCLESTKFTIYNNMFCAGFHEGGRDSCQGDSGGPHVTEVEGTSFLTGIISWGEECAMKGKYGIYTKVSEYVNWIKNKTKLT
OUTPUT: 274

Lab note: next protein to report on.
INPUT: I'd like to know its % of WT kcat/KM. The protein in question is FIXa-Y155F/K247N/N249S/R338E/T343R/E410N (protein) chain 1: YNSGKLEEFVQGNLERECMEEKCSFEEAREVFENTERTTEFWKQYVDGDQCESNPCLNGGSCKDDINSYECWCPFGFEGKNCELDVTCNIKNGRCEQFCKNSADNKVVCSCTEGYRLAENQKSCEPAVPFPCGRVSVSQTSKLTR chain 2: VVGGEDAKPGQFPWQVVLNGKVDAFCGGSIVNEKWIVTAAHCVETGVKITVVAGEHNIEETEHTEQNRSVIRIIPHHNYNAAINKYNHDIALLELDEPLVLNSYVTPICIADKEYTNIFLKFGSGYVSGWGRVFHKGRSALVLQYLRVPLVDRATCLESTKFRIYNNMFCAGFHEGGRDSCQGDSGGPHVTEVEGTSFLTGIISWGEECAMKGKYGIYTKVSRYVNWIKNKTKLT
OUTPUT: 391
